tested.on: κ opioid receptor (KOR) (Homo sapiens)
test.method.notes: Radioligand competition binding, KOR ([3H]-U69593), HEK293 cell homogenates
readout: pKi
Answers are plain numbers, as −log10 of the molar value.

Known pKi results, listed for orientation:
INSERT INTO assay_data (molecule, data_value) VALUES
  ('Fc1ccccc1C1=NCc2c(-c3cnco3)ncn2-c2ccc(Br)cc21 [SH-I-85]', 6.79),
  ('Brc1ccc2c(c1)C(c1ccccn1)=NCc1c(-c3cnco3)ncn1-2 [KRM-II-97]', 5.71),
  ('C#Cc1ccc2c(c1)C(c1ccccc1F)=N[C@@H](C)c1c(C(=O)OC3CC3)ncn1-2 [GL-I-38]', 7.17),
  ('C#Cc1ccc2c(c1)C(c1ccccc1F)=N[C@H](C)c1c(C(=O)NCC)ncn1-2 [GL-II-74]', 6.71),
  ('C#Cc1ccc2c(c1)C(c1ccccc1F)=N[C@H](C)c1c(C(N)=O)ncn1-2 [MP-III-019.B]', 5.81);

Return reported pKi values for all items listed beneath this line.
1. C#Cc1ccc2c(c1)C(c1ccccn1)=NCc1c(C(=O)OC(C)C)ncn1-2 [MP-II-068]
2. Brc1ccc2c(c1)C(c1ccccc1)=NCc1c(-c3cnco3)ncn1-2 [KRM-II-73]
3. C#Cc1ccc2c(c1)C(c1ccccc1)=NCc1c(-c3cnco3)ncn1-2 [KRM-II-82]
4. C#Cc1ccc2c(c1)C(c1ccccc1F)=N[C@@H](C)c1c(C(=O)NC3CC3)ncn1-2 [GL-I-55]
5. C#Cc1ccc2c(c1)C(c1ccccc1F)=N[C@@H](C)c1c(C(N)=O)ncn1-2 [MP-III-018.B]
6. Cc1ncoc1-c1ncn2c1CN=C(c1ccccc1)c1cc(Br)ccc1-2 [KRM-III-66]

Reply:
[6.26, 6.13, 5.92, 6.82, 5.56, 6.12]
